# method.summary: Drug concentration in C57BL/6 mouse brain at 5 mg, sc measured after 0.5 hrs by LC/MS-MS analysis
# Assay type: ADME, organism-based
# assay.context: read-out: Drug uptake
assay.readout: concentration at 0.5 h (nM)
State the answer as a number, implicitly in nM.

Problem: Supply reported concentration at 0.5 h belonging to this compound: C[C@]12CC[C@@H]3c4ccc(O)cc4C[C@@H](CCCCCCCCC[S+]([O-])CCCC(F)(F)C(F)(F)F)[C@H]3[C@@H]1CC[C@@H]2O (stereo partly specified)
Solution: 0.7

----------
# method.summary: Drug concentration in C57BL/6 mouse brain at 100 mg/kg, po measured after 2 hrs by LC/MS-MS analysis
# Type: ADME, organism-based
# assay.context: read-out: Drug uptake
assay.readout: concentration at 2 h
Report the figure along with its unit, number first.

Illustrative cases are given below, each with its answer.
smiles.input: Cc1cc(F)cc(C)c1C(=O)c1sc2cc(O)ccc2c1Oc1ccc(OCCN2CC(CF)C2)cc1
concentration at 2 h: 588 nM

smiles.input: Cc1cc(F)cc(C)c1C(=O)c1sc2cc(O)ccc2c1Oc1ccc(OCCN2CC[C@@H](CF)C2)cc1
concentration at 2 h: 276 nM

Problem: Provide only the value of recorded concentration at 2 h for Cc1cc(F)cc(C)c1C(=O)c1sc2cc(O)ccc2c1Oc1ccc(OC2CN(CCCF)C2)cc1
Solution: 1250 nM

----------
# concentration at 0.5 h per entry
# method.summary: Drug concentration in C57BL/6 mouse brain at 100 mg/kg, po measured after 0.5 hrs by LC/MS-MS analysis
# Assay type: ADME, organism-based
# assay.context: read-out: Drug uptake
Provide the reading as a plain figure in nM.

Here's what some known entries look like.
smiles.input: Cc1cc(F)cc(C)c1C(=O)c1sc2cc(O)ccc2c1Oc1ccc(OCCN2CC(CF)C2)cc1
assay.readout: concentration at 0.5 h
recorded.number: 750

smiles.input: Cc1cc(F)cc(C)c1C(=O)c1sc2cc(O)ccc2c1Oc1ccc(OCCN2CC[C@@H](CF)C2)cc1
assay.readout: concentration at 0.5 h
recorded.number: 121

Alright, here's another molecule for you.
Problem: Please indicate concentration at 0.5 h recorded for Cc1cc(F)cc(C)c1C(=O)c1sc2cc(O)ccc2c1Oc1ccc(OC2CN(CCCF)C2)cc1
Solution: 1630

----------
# method.summary: cells
# assay.context: Homo sapiens, MCF7:5C, 168 h
# Description: Antiproliferative activity against human MCF7:5C cells assessed as reduction in cell viability incubated for 7 days by Hoechst 33258 dye based assay
assay.readout: IC50

Problem: Provide IC50 value for the following molecule: O=C(c1ccc(O)cc1)c1sc2cc(O)ccc2c1Oc1ccc(OCCN2CC(CF)C2)cc1
Solution: > 0.1 µM

----------
# method.summary: cells
# assay.context: Homo sapiens, MCF7:5C, 168 h, read-out: pIC50 (converted)
Lab note: cut-off is 1000 pM. Strictly less in IC50 is Y. Exactly 1000 pM or more is N.

Problem: In plain terms, does Cc1cc(F)cc(C)c1C(=O)c1sc2cc(O)ccc2c1Oc1ccc(OCCN2CC(CF)C2)cc1 come in under 1000 pM for IC50?
Solution: N

Problem: Given Cc1ccccc1C(=O)c1sc2cc(O)ccc2c1Oc1ccc(OCCN2CC(CF)C2)cc1 , is recorded IC50 strictly lower than 1000 pM?
Solution: Y

Problem: Dear colleague, could you confirm whether IC50 of Cc1cc(F)cc(C)c1C(=O)c1sc2cc(O)ccc2c1Oc1ccc(OC2CN(C3CC3)C2)cc1 falls below 1000 pM? Thanks.
Solution: Y

Problem: In the record for Cc1cc(O)ccc1C(=O)c1sc2cc(O)ccc2c1Oc1ccc(OCCN2CC(CF)C2)cc1 , is IC50 less than 1000 pM?
Solution: Y

----------
# assayed.target: Estrogen receptor (Homo sapiens, UniProt P03372)
# Sequence (P03372 whole entry): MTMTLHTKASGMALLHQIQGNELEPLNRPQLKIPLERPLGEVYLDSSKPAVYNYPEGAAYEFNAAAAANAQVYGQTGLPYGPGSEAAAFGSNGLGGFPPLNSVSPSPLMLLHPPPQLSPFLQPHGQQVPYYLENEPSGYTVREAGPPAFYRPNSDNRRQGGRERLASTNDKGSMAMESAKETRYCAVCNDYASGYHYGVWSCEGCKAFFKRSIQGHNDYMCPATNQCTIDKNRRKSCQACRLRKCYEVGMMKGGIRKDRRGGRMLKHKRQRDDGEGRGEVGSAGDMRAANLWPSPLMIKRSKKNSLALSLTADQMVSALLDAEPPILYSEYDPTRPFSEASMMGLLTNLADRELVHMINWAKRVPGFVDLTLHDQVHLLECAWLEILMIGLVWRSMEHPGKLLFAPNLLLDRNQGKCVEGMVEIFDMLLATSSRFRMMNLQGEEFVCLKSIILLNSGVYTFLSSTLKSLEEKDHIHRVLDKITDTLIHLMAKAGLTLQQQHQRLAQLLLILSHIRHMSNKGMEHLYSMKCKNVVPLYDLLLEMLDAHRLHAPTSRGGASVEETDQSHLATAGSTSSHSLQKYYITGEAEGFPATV
# method.summary: Antagonist activity at ERalpha in human MCF7:WS8 cells incubated for 18 hrs by dual luciferase reporter gene assay relative to control
# Assay type: cell-based
IC50 under 4 nM gets Met, anything at or over 4 nM gets Not met.

Use the examples below as a reference point.
smiles.input: Cc1cc(F)cc(C)c1C(=O)c1sc2cc(O)ccc2c1Oc1ccc(OC2CN(C3CC3)C2)cc1
category: Not met
--
smiles.input: O=C(c1ccccc1)c1sc2cc(O)ccc2c1Oc1ccc(OC2CN(CCCF)C2)cc1
category: Met
--
smiles.input: O=C(c1ccc(O)cc1)c1sc2cc(O)ccc2c1Oc1ccc(OCCN2CC(CF)C2)cc1
category: Not met
--
smiles.input: Cc1cc(F)cc(C)c1C(=O)c1sc2cc(O)ccc2c1Oc1ccc(OCCN2CC[C@@H](CF)C2)cc1
category: Not met
--
smiles.input: Cc1cc(F)cc(C)c1C(=O)c1sc2cc(O)ccc2c1Oc1ccc(OCCN2CC(CF)C2)cc1
category: Met
--
smiles.input: Cc1cc(F)cc(C)c1C(=O)c1sc2cc(O)ccc2c1Oc1ccc(OC2CN(CCCF)C2)cc1
category: Met

Problem: Lab note: IC50 threshold 4 nM. Does this molecule come in strictly under it? Cc1ccc(C(=O)c2sc3cc(O)ccc3c2Oc2ccc(OCCN3CC(CF)C3)cc2)c(C)c1
Solution: Not met

Problem: Could you please tell me whether IC50 recorded for Cc1cc(O)ccc1C(=O)c1sc2cc(O)ccc2c1Oc1ccc(OCCN2CC(CF)C2)cc1 is less than 4 nM?
Solution: Not met

Problem: Decide: IC50 of O=C(c1ccccc1)c1sc2cc(O)ccc2c1Oc1ccc(OCCN2CC(CF)C2)cc1 strictly below 4 nM?
Solution: Not met

Problem: Decide: IC50 of Cc1ccccc1C(=O)c1sc2cc(O)ccc2c1Oc1ccc(OC2CN(CCCF)C2)cc1 strictly below 4 nM?
Solution: Met

Problem: Field: below-cutoff. Rule: recorded IC50 strictly less than 4 nM. Subject: Cc1cc(F)ccc1C(=O)c1sc2cc(O)ccc2c1Oc1ccc(OCCN2CC(CF)C2)cc1
Solution: Met

Problem: Could you please tell me whether IC50 recorded for Cc1cc(F)ccc1C(=O)c1sc2cc(O)ccc2c1Oc1ccc(OC2CN(CCCF)C2)cc1 is less than 4 nM?
Solution: Not met

Problem: Quick check: IC50 of O=C(c1ccc(F)cc1)c1sc2cc(O)ccc2c1Oc1ccc(OCCN2CC(CF)C2)cc1 under 4 nM?
Solution: Not met

Problem: I wonder whether Cc1ccccc1C(=O)c1sc2cc(O)ccc2c1Oc1ccc(OCCN2CC(C)C2)cc1 has IC50 below 4 nM. Can you tell?
Solution: Met

Problem: Lab log: compare recorded IC50 with 4 nM; is it strictly lower for Cc1ccccc1C(=O)c1sc2cc(O)ccc2c1Oc1ccc(OCCN2CC(CF)C2)cc1 ?
Solution: Met

----------
# method.summary: Antiproliferative activity against human MCF7:WS8 cells assessed as reduction in cell viability incubated for 5 days by Hoechst 33258 dye based assay relative to control
# Assay type: functional
# assay.context: MCF7:WS8, 120 h
Output satisfied for records whose Emax is lower than 70%, not satisfied for records at or above 70%.

Field: example entries. Status: answers known.
molecule: Cc1cc(F)cc(C)c1C(=O)c1sc2cc(O)ccc2c1Oc1ccc(OCCN2CC[C@@H](CF)C2)cc1
category: satisfied
//
molecule: O=C(c1ccccc1)c1sc2cc(O)ccc2c1Oc1ccc(OCCN2CC(CF)C2)cc1
category: satisfied
//
molecule: O=C(c1ccccc1)c1sc2cc(O)ccc2c1Oc1ccc(OC2CN(CCCF)C2)cc1
category: satisfied

Problem: Report whether reported Emax is lower than 70% (strictly) for Cc1cc(F)ccc1C(=O)c1sc2cc(O)ccc2c1Oc1ccc(OCCN2CC(CF)C2)cc1
Solution: not satisfied

Problem: Criterion: Emax strictly below 70%. Is it met by Cc1cc(F)cc(C)c1C(=O)c1sc2cc(O)ccc2c1Oc1ccc(OC2CN(C3CC3)C2)cc1 ?
Solution: satisfied

Problem: Criterion: Emax strictly below 70%. Is it met by O=C(c1ccc(F)cc1)c1sc2cc(O)ccc2c1Oc1ccc(OCCN2CC(CF)C2)cc1 ?
Solution: satisfied

Problem: Is 70% strictly greater than the molecule's reported Emax? molecule: Cc1cc(F)cc(C)c1C(=O)c1sc2cc(O)ccc2c1Oc1ccc(OCCN2CC(CF)C2)cc1
Solution: not satisfied

Problem: Quick check: Emax of Cc1ccccc1C(=O)c1sc2cc(O)ccc2c1Oc1ccc(OC2CN(CCCF)C2)cc1 under 70%?
Solution: satisfied

Problem: Could you please tell me whether Emax recorded for C[C@]12CC[C@@H]3c4ccc(O)cc4C[C@@H](CCCCCCCCC[S+]([O-])CCCC(F)(F)C(F)(F)F)[C@H]3[C@@H]1CC[C@@H]2O (stereo partly drawn) is less than 70%?
Solution: satisfied

Problem: Dear colleague, could you confirm whether Emax of Cc1ccccc1C(=O)c1sc2cc(O)ccc2c1Oc1ccc(OCCN2CC[C@@H](CF)C2)cc1 falls below 70%? Thanks.
Solution: not satisfied

Problem: Given the entry Cc1cc(O)ccc1C(=O)c1sc2cc(O)ccc2c1Oc1ccc(OCCN2CC(CF)C2)cc1 , would its reported Emax be below 70%?
Solution: not satisfied
